Exercise: state measured solubility at 16 h for each of the compounds provided.
# assayRemarks: Kinetic solubility
# Type: physicochemical
# measurementSetup: Dulbecco's phosphate buffer saline (DPBS), aqueous buffer, kinetic from dmso stock, DPBS pH 7.4, 25° C., 200 μM test compound
Numeric answer only, unit µM assumed.

solubility at 16 h reading for Cn1c(Nc2nc3ccc(N4CCCC4)cc3o2)nc2cc(C(=O)NCCOCCO)ccc21 [Example 137] : 6.9

The reported solubility at 16 h of the compound Cn1c(Nc2nc3cc(C(F)(F)F)ccc3o2)nc2cc(C(=O)NCCOCCO)ccc21 [Example 43] was 8

Entry COCCNC(=O)c1ccc2c(c1)nc(Nc1nc3ccc(OC(F)F)cc3o1)n2C [Example 63] , solubility at 16 h reported as 0.8

// solubility at 16 h lookup, compound = Cn1c(Nc2nc3ccc(OC(F)(F)F)cc3o2)nc2cc(C(=O)NC(CO)CO)ccc21 [Example 48] , result: 3.9
